Quick reference for T/C among some compounds
# Test system: BDF1 mice, P388 leukemia ip, median survival T/C
# ASSAY OVERVIEW: NCI In Vivo Anticancer Drug Screen. Data for tumor model P388 Leukemia (intraperitoneal) in B6D2F1 (BDF1) mice
# RUN CONDITIONS: endpoint: median survival time; dose: 400.0 mg/kg/injection; schedule: Q04DX003 (ip); vehicle: Klucel (hydroxypropylcellulose) (HPC); higher = longer survival
Toxic doses and inconclusive results are not listed.

Reference set, count: 5
INSERT INTO results (compound, study_target, readout_type, result_value) VALUES
  ('CCOc1ccc2nc(/C=C\c3cc4c5c(c3)CCCN5CCC4)ccc2c1', 'BDF1 mice, P388 leukemia ip, median survival T/C', 'T/C', '95 % of control'),
  ('CC(=O)Nc1ccc(N=Nc2ccccc2)cc1F', 'BDF1 mice, P388 leukemia ip, median survival T/C', 'T/C', '95 % of control'),
  ('COc1ccc(OC)c(/C=C/C(=O)c2ccc(Cl)cc2)c1', 'BDF1 mice, P388 leukemia ip, median survival T/C', 'T/C', '104 % of control'),
  ('CN(N=O)c1ccc(N(C)N=O)cc1', 'BDF1 mice, P388 leukemia ip, median survival T/C', 'T/C', '95 % of control'),
  ('O=C(NCCBr)Nc1ccccc1C(F)(F)F', 'BDF1 mice, P388 leukemia ip, median survival T/C', 'T/C', '109 % of control');

Input "O=[N+]([O-])c1ccc(/C=C/C=C/c2ccc(Cl)cc2Cl)cc1" . Output T/C: 91 % of control

Input "Cc1ccc(/C=C2/C=C(c3ccccc3)OC2=O)cc1" . Output T/C: 90 % of control

Input O=C(OC1C=CCC1)c1ccc([N+](=O)[O-])cc1 (configuration not stated) . Output T/C: 100 % of control

---

# Tested on: BDF1 mice, P388 leukemia ip, median survival T/C
# ASSAY OVERVIEW: NCI In Vivo Anticancer Drug Screen. Data for tumor model P388 Leukemia (intraperitoneal) in B6D2F1 (BDF1) mice
# RUN CONDITIONS: endpoint: median survival time; dose: 100.0 mg/kg/injection; schedule: Q01DX009 (ip); vehicle: saline
Toxic doses and inconclusive results are not listed. Rule for the calls: active = survival T/C of 150% or more; inactive = T/C below 125% in these data.
Respond with a class label; see class 1 = active, class 0 = inactive

INSERT INTO measurements (molecule, label_value) VALUES
  ('O=C(O)/C=C\C(=O)Nc1ccccc1NC(=O)/C=C/C(=O)O', 'class 0'),
  ('CCN(CC)CCCC(C)Nc1ncnc(N)c1[N+](=O)[O-] (centres undefined)', 'class 0'),
  ('O=C(c1ccccc1)N1CCC2OC2C1 (centres undefined)', 'class 0');

Next up:
Fill in: this test's call for "CC(/C=N/N=C(N)N)=N/N=C(N)N" is ___
class 1

---

# Tested on: BDF1 mice, P388 leukemia ip, median survival T/C
# ASSAY OVERVIEW: NCI In Vivo Anticancer Drug Screen. Data for tumor model P388 Leukemia (intraperitoneal) in B6D2F1 (BDF1) mice
# RUN CONDITIONS: endpoint: median survival time; dose: 25.0 mg/kg/injection; schedule: Q04DX003 (ip); vehicle: saline; higher = longer survival
Toxic doses and inconclusive results are not listed.
Quick reference for T/C among some compounds

INSERT INTO results (compound, result_value) VALUES
  ('CCCCNC(C)(C)CS', '97 % of control');

Input COc1ccc(C(C#N)CC(=O)c2ccc(OC)c(OCc3ccccc3)c2)cc1OC (centres undefined) . Output T/C: 114 % of control

Input COc1cc2c3c(c1)-c1c(ccc(OC)c1Oc1nnnn1-c1ccccc1)CC3N(C)CC2 (centres undefined) . Output T/C: 115 % of control

Input "CC[n+]1cccc(NC(=O)c2ccc(NC(=O)c3ccc(C(=O)Nc4ccc(C(=O)Nc5ccc[n+](CC)c5)cc4)cc3)cc2)c1" . Output T/C: 200 % of control
